Measured GI50 accompanies every entry in the list below.
System: ZR-75-1
Assay: Cytotoxicity against human ZR-75-1 cells by sulforhodamine B method
Assay type: functional
Dear colleague, please return just the value in nM, with no unit written.

Incoming: # query: GI50 of entry COc1cc2c(cc1OCCCCCN1CCN(CCCCCOc3ccc4c(c3)CC[C@@H]3[C@@H]4CC[C@]4(C)[C@@H](O)CC[C@@H]34)CC1)N=C[C@@H]1CC(F)(F)CN1C2=O
Outgoing: 120

Incoming: # query: GI50 of entry COc1cc2c(cc1OCc1cn(CCCCCOc3ccc4c(c3)CC[C@@H]3[C@@H]4CC[C@]4(C)[C@@H](O)CC[C@@H]34)nn1)N=C[C@@H]1CCCN1C2=O
Outgoing: 110

Data credit: ChEMBL document CHEMBL1765029
